Cited source for all entries: patent US8592629B2

target: Nav1.7 (or SCN9A) channel (Homo sapiens, UniProt Q15858); construct: expressed in transfected cells; experiment: Nav1.7 (hSCN9A) block in HEK cells, PatchXpress 7000 automated electrophysiology, estimated IC50 (EIC50); assay type: cell-based; conditions: PatchXpress assay; HEK cells stably transfected with hSCN9A, voltage-clamped at V1/2 of inactivation
Sequence (Q15858 whole entry): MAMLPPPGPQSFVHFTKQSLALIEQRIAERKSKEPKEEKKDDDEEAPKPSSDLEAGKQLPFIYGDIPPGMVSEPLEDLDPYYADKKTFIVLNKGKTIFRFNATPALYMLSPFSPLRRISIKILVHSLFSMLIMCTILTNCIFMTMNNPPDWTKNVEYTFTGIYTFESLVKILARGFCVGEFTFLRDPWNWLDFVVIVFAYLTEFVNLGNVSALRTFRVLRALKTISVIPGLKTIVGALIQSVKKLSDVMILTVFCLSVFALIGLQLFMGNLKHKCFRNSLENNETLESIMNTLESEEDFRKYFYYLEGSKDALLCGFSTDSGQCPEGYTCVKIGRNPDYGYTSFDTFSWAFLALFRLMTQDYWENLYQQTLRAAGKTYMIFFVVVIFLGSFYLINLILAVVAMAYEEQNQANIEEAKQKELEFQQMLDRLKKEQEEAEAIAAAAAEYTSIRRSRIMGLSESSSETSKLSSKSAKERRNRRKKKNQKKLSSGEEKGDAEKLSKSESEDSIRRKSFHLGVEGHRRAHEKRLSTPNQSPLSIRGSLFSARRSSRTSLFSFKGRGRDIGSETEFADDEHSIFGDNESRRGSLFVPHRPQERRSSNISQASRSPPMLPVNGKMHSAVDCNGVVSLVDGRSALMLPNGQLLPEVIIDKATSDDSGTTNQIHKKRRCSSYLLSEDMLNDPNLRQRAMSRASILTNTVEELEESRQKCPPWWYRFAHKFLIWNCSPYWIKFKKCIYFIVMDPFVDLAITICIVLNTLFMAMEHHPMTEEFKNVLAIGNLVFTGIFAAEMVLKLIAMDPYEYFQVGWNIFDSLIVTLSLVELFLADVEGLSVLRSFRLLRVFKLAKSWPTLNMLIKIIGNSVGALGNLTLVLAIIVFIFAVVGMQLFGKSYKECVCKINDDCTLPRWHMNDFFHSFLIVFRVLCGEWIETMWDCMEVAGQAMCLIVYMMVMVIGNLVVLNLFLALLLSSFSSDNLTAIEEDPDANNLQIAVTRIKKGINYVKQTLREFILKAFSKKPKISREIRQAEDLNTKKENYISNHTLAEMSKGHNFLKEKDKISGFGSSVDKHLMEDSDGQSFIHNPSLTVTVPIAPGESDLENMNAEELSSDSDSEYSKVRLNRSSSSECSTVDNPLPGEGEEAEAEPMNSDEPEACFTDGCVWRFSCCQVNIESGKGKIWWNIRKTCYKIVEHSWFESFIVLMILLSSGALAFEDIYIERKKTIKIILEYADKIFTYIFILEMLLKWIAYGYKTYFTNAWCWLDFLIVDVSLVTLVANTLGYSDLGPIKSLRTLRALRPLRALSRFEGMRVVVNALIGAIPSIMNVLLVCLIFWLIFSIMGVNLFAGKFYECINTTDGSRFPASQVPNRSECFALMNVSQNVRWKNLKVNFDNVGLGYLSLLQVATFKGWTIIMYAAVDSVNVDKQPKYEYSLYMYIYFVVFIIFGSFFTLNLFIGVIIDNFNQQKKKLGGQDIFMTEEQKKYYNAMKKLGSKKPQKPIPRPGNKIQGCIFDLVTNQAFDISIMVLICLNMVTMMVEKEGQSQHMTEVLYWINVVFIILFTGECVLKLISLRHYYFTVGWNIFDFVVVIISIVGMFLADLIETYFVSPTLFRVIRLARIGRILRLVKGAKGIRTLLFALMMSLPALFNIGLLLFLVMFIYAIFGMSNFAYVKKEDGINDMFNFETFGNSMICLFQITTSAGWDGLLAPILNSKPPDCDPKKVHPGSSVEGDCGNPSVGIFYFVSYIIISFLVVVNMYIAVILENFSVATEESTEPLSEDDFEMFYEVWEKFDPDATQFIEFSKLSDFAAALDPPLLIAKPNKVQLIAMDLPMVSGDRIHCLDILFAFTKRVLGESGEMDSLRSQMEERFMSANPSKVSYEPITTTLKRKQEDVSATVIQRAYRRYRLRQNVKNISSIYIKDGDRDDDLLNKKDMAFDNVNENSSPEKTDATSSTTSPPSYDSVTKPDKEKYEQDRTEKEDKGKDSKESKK
For each entry below, report its pIC50 value.
Numbers only, as −log10 of the molar value.

CS(=O)(=O)NC(=O)c1cc(F)c(Oc2cnc(OCC3CC3)c(Cl)c2)cc1F 7.39
CC(C)Oc1ncc(Oc2cc(F)c(C(=O)NS(C)(=O)=O)cc2F)cc1F 5.77
CC(C)Oc1ncc(Oc2cc(F)c(C(=O)NS(C)(=O)=O)c(F)c2F)cc1Cl 5.64
CO[C@@H]1CCCN(c2ncc(Oc3cc(F)c(C(=O)NS(C)(=O)=O)cc3F)cc2Cl)C1 5.62
CS(=O)(=O)NC(=O)c1cc(Cl)c(Oc2cnc(Oc3ccccc3)c(Cl)c2)cc1F 7.14
CC(C)Nc1ncc(Oc2cc(F)c(C(=O)NS(C)(=O)=O)cc2F)cc1Cl 6.82

Please look at the items below and tell me pIC50 for each one, in order.
1. CC(C)COc1ncc(Oc2cc(F)c(C(=O)NS(C)(=O)=O)cc2Cl)cc1Cl
2. CC(C)(Oc1ncc(Oc2cc(F)c(C(=O)NS(C)(=O)=O)cc2Cl)cc1Cl)C(F)(F)F
3. CC(F)(F)c1ncc(Oc2cc(F)c(C(=O)NS(C)(=O)=O)cc2Cl)cc1Cl

8.12
8.03
6.25

What measured pIC50 goes with CS(=O)(=O)NC(=O)c1cc(F)c(Oc2cnc(OC3CCC3)c(Cl)c2)cc1F ?
6.89

----------
For each entry below, report its IC50 value.
biological target: Nav1.7 (or SCN9A) channel (Homo sapiens); construct: expressed in transfected cells; assay: Nav1.7 (hSCN9A) block in HEK cells, PatchXpress 7000 automated electrophysiology, estimated IC50 (EIC50); type: cell-based; conditions: PatchXpress assay; HEK cells stably transfected with hSCN9A, voltage-clamped at V1/2 of inactivation
Answers are plain numbers, in nM.

Please look at the items below and tell me IC50 for each one, in order.
1. CS(=O)(=O)NC(=O)c1cc(Cl)c(Oc2cnc(C3CC3)c(C3CC3)c2)cc1F
2. CS(=O)(=O)NC(=O)c1cc(F)c(Oc2cnc(OCC(F)(F)F)c(Cl)c2)cc1F
3. CC(C)(F)COc1ncc(Oc2cc(F)c(C(=O)NS(C)(=O)=O)cc2Cl)cc1Cl
4. CC(C)Oc1ncc(Oc2ccc(C(=O)NS(C)(=O)=O)cc2C#N)cc1Cl
5. CS(=O)(=O)NC(=O)c1cc(F)c(Oc2cnc(OC3CCOCC3)c(Cl)c2)cc1F

1: 53; 2: 220; 3: 94; 4: 620; 5: 780

----------
molecular target: Nav1.7 (or SCN9A) channel (Homo sapiens, UniProt Q15858); construct: expressed in transfected cells; assay: Nav1.7 (hSCN9A) block in HEK cells, Ionworks Quattro automated electrophysiology; type: cell-based; settings: Ionworks Quattro assay (IW); HEK cells stably transfected with hSCN9A; read-out: Nav1.7 EIC50 (IW)
For each entry below, report its pIC50 value.
One number for each entry, as −log10 of the molar value.

Some entries whose results are on file:
Compound	Assayed target	Observed
COc1ccc2nc(Oc3cc(F)c(C(=O)NS(C)(=O)=O)cc3F)ccc2c1 [Example 190]	Nav1.7 (or SCN9A) channel (Homo sapiens, UniProt Q15858)	4.53
CCc1cn2nc(Oc3cc(F)c(C(=O)NS(C)(=O)=O)cc3F)ccc2n1 [Example 180]	Nav1.7 (or SCN9A) channel (Homo sapiens, UniProt Q15858)	3.63

Could you now consider this next compound?
What measured pIC50 goes with Cc1ncc(Oc2ccc(C(=O)NS(C)(=O)=O)cc2Cl)cn1 [Example L58] ?
3.67
